Record set of pKd for target or system AAK1.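 Further: kd values determined as follow-up on hits from a single-replicate KINOMEscan panel screen.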
Numbers only, as −log10 of the molar value.

Cc1cc(-c2ccc3c(c2)CC[C@@H](N[C@@H](C)c2ccccc2)C3)cnc1N.Cl    5.44

Continue with the molecule presented below.
Query string: Please indicate pKd recorded for O=C(Nc1n[nH]c2cc(-c3cccc(F)c3F)ccc12)C1CC1
Result string: 5.68

----------
Test system: TYK2(JH1domain-catalytic)
Details: concentration: 1 μM, replicates: in singlicate; n = 1
property: %Inh (%)
Answers are plain numbers, in %.

Take a look at these entries with their results.
CS(=O)(=O)c1ccc(-c2c(-c3ncn[nH]3)sc(N3CCOCC3)c2C#N)cc1    0
Cc1cc(NCC(c2ccccc2)c2ccccc2)nc(NCc2ccc(C(F)(F)F)cc2)n1    9
O=C(O)COc1ncnc2cc(-c3ccc4[nH]ncc4c3)sc12    29
Fc1cccc(COc2nnc(-c3ccc4c(c3)CCO4)o2)c1    3

Continue with the compound presented below.
Query string: Please indicate %Inh recorded for CCn1c(-c2cccnc2O)nc2cnccc21
Result string: 0

----------
System: PIM1
Settings: concentration: 1 μM, replicates: in singlicate; n = 1
property: %Inh (%)
One number for each entry, in %.

For each of the items listed, what is its %Inh?
1. O=C(Nc1n[nH]c2nc(-c3nccs3)c(Br)cc12)C1CC1
2. O=C(Nc1ccccc1)Nc1cccc(Oc2ccc3nccn3n2)c1
3. O=c1cc(N2CCOCC2)nc2n(Cc3cccc(Cl)c3Cl)ccn12
4. COc1cc2nccc(Nc3ccc(NC(=O)c4ccc(C)cc4)c(O)c3)c2cc1OC.Cl
5. COc1ccccc1-c1ccc2c(NC(=O)C3CC3)n[nH]c2n1
6. Cc1ccccc1-n1cnc2c(N)ncnc21

Result string:
1: 0; 2: 0; 3: 4; 4: 0; 5: 13; 6: 0

For each of the items listed, what is its %Inh?
1. Cc1ccc(NC(=O)Nc2cccc(Cl)c2)cc1-c1ccc(C(=O)Nc2ccncc2)cc1
2. Cc1cc(N2Cc3ccccc3C2)nc(Nc2ccc(S(=O)(=O)N3CCOCC3)cc2)n1.Cl
3. CC(=O)Nc1nc2cnc(Nc3cc(NC(=O)c4cccc(CCC#N)c4)ccc3C)nc2s1
4. CC(C)(C)c1ccc(C(=O)Nc2cn3cc(-c4cccnc4)ccc3n2)cc1
5. CN1C(=O)C(Nc2ccc(Cl)c(C(=O)O)c2)=C(c2ccc(Cl)cc2)C1=O
6. C[C@@H]1CCCCN1c1cc(-c2ccc3c(N)n[nH]c3c2)nc(N)n1

Result string:
1. 15
2. 14
3. 5
4. 32
5. 0
6. 0

For each of the items listed, what is its %Inh?
1. CS(=O)(=O)c1ccc(-c2nc3n(c2-c2ccncc2)CCC3)cc1
2. Cc1cc(NCC(c2ccccc2)c2ccccc2)nc(NCc2ccc(C(F)(F)F)cc2)n1
3. Fc1cc(Cl)ccc1Nc1ccnc2cc(I)ccc12
4. COc1ccccc1CNC(=O)c1cc(C(=O)c2ccccc2C)c[nH]1

Result string:
[0, 12, 22, 0]

----------
System: p38-alpha
Construct: gene MAPK14
Conditions: concentration: 1 μM, replicates: in singlicate; n = 1
property: %Inh

Take a look at these entries with their results.
NC(=O)c1nnc2ccccc2c1N    71%
Cn1ccc2ncnc(Oc3cccc(C(=O)Nc4ccccc4)c3)c21    0%
Nc1nc(-c2nccs2)c(-c2ccnc3ccccc23)s1    0%

For each of the items listed, what is its %Inh?
1. COC(=O)c1c(-c2ccccc2)c2cc(OC)ccc2c(=O)n1Cc1ccccc1
2. COc1cccc(NC(=O)NC2CCN(c3ccnc(Nc4ccc(F)cc4)n3)C2)c1 (centres unmarked)
3. Cc1cccc(-c2nc(Nc3ccncc3)c3ccccc3n2)n1
4. COc1cc2nccc(Nc3ccc(NC(=O)c4ccc(C)cc4)c(O)c3)c2cc1OC.Cl

Result string:
1: 36%; 2: 4%; 3: 16%; 4: 0%
